Data credit: PubChem BioAssay (NCI)

Recorded below: GI50, system SK-MEL-2 melanoma.

Below are worked cases with known answers.
In [3]: df
Out[3]:
                                   compound  recorded_metric       val
0  c1ccc2c(-c3cnn4cc(-c5ccc(N6CCNCC6)cc5)cnc34)ccnc2c1             GI50   1.57 µM
1  C[C@@H]1CC[C@@H]2[C@@H]1[C@H](OC(=O)c1ccc3ccccc3c1)[C@]1(C3CCCCC3)C[C@@H](OC(=O)CO)[C@@]2(C)O1             GI50   15.3 µM
2  CCCC(CCC)Oc1ccc(CCCC2=C(O)c3ccccc3C(=O)C2=O)cc1             GI50   6.85 µM
3               Cn1ccc2c3c(=O)cc[nH]c3ccc21             GI50  > 100 µM
4     Cc1ccc(NC(=O)N2CCCCC2)cc1[N+](=O)[O-]             GI50  > 100 µM
5  CCCC(=O)O[C@]1(C)CC[C@@H]2[C@H]3[C@@H]1[C@@H]1C/C(C)=C\CC[C@](C)(OC(=O)[C@@H]2C)[C@H]3O1             GI50   49.5 µM

Recorded GI50 for CNC1=CC(=O)C2=C(C1=O)C1C3=C(C(=O)C(Br)=C(OC)C3=O)C2c2ccccc21 (centres undefined) on SK-MEL-2 melanoma was 3.03 µM

Value sought: GI50, system SK-MEL-2 melanoma, item C=C1[C@@H](O)C[C@H]2C(C)(C)C[C@H](Cl)C[C@]2(C)[C@H]1C[C@H](O)[C@H]1CC(=O)NC1=O . Result: < 0.0111 µM

The compound COc1cc2oc(-c3cccc(C(=O)Nc4ccc(C)cc4)c3)cc(=O)c2c(OC)c1OC , when measured on SK-MEL-2 melanoma, yielded GI50 of 3.33 µM

Observed GI50, SK-MEL-2 melanoma, CCOc1ccc2c(c1)C(=O)c1c-2n(CCCN)c(=O)c2cc([N+](=O)[O-])ccc12 : 1.53 µM

The compound N=C1N=C(N)S/C1=C\c1ccc2ncccc2c1 , when measured on SK-MEL-2 melanoma, yielded GI50 of > 25 µM

Simply: COC(=O)c1ccc(NC(N)=NCC(C)(C)COc2ccc(C(F)(F)F)cc2)nc1 , SK-MEL-2 melanoma, GI50 = 1.86 µM

For the compound O=C([CH-]C(=O)c1ccccc1)c1ccccc1.[CH3-].[CH3-].[CH3-].[Sn+4] , the measured GI50 on SK-MEL-2 melanoma was 7.68 µM

// assay SK-MEL-2 melanoma, entry O=C(O)c1cc2cc(O)ccc2[nH]1 , GI50 value = > 100 µM

###

- Tested on: COLO 205 colon
- assay_name: NCI tumour cell line growth inhibition, 48 h; in the data active = GI50 below about 0.43 µM; inactive = the rest
Respond only with the outcome that fits, drawn from active, inactive

The examples below pair each entry with its known result.
                                   molecule  classification
0  COc1ccc(C2CC(c3cccc(OC)c3)=NN2C(=O)c2cc(OC)c(OC)c(OC)c2)cc1 (stereo not given)        inactive
1  COc1ccc2c(c1)C(=O)c1c-2n(CCCN=[N+]=[N-])c(=O)c2cc(N)ccc12        inactive
2      OCC#CCCCCOCC#Cc1ccccc1C#CCOCCCCC#CCO        inactive

What call does the record list for CC(=O)OC1CC2(O)C(CCC3(C)C(c4ccc(=O)oc4)CCC32O)C2(C)CCC(OC3OC(CO)C(O)C(O)C3O)C=C12 (stereo not given) ?
active

I'd appreciate the recorded outcome for CSC(=NC#N)S/C=C/C(=O)c1cccc2ccccc12 from this test.
inactive

// return assay outcome for Cn1ccc2c3c(=O)cc[nH]c3ccc21
inactive

// return assay outcome for NC(=NCCO)c1ccc(N2CCCN(c3ccc(C(N)=NCCO)cc3)CC2)cc1
inactive

Write down the call the test reported for this molecule. Item: O=c1oc2c(cc1-c1ccccc1)C(O)Oc1ccccc1-2 (stereo not given)
inactive

Test call for this molecule, please: CCOC(=O)Nc1ccc(C(=O)/C=C/c2ccccc2)cc1
inactive

Which outcome did this test record for the molecule C[CH2][Ge]([CH2]C)([CH2]C)[O]C(=O)C([O][Ge]([CH2]C)([CH2]C)[CH2]C)c1ccccc1 (stereo not given) ?
inactive

###

- System: KM12 colon
- assay_name: NCI tumour cell line growth inhibition, 48 h
*1 amine or outer side, *2 acyl side, *3 side chain or, on linkers, in order; H or OH if unused. Where a SMILES comes first, the peptide text is derived from it. Bridges are numbered along the chain shown (N, C = ends). [ ]: non-standard residue; d: D form. X59 = COc1c(N[*:1])cccc1C(=O)O[C@H](C(=O)[C@H](C)C(=O)[*:2])C(C)C; X58 = CC(C)C[C@H](C(=O)[*:2])C(C)C(=O)C1CCCN1[*:1]; NMeY = CN[C@@H](Cc1ccc(O)cc1)C(=O)O; Lac = C[C@H](O)C(=O)O
recorded_metric: TGI

Example compounds with recorded TGI:
compound	val
N#CCN1CCN(CC#N)CCN(CC#N)CCN(CC#N)CC1	> 100 µM
Cc1ccc(/C=C2\CCCCCC2=O)cc1	> 100 µM
Nc1cc(N)cc(Cc2ccccc2)c1	> 100 µM
COc1ccc(C[C@H]2C(=O)O[C@H](C)[C@H](NC(=O)[C@@H](CC(C)C)C(C)C(=O)C3CCCN3C(=O)[C@H](C)O)C(=O)Nc3cccc(c3OC)C(=O)O[C@@H](C(C)C)C(=O)[C@H](C)C(=O)N[C@@H](CC(C)C)C(=O)N3CCC[C@H]3C(=O)N2C)cc1 (stereo partly drawn) (H-[Lac][X58]T[X59]LP[NMeY](Me); ester 3-C)	> 12.5 µM
O=C(/C=N/O)Nc1ccc(Cl)c(I)c1	68.3 µM

Case CC(=O)N1N=C(c2ccc(Nc3nc(Nc4ccc(F)cc4)nc(Nc4ccc(Cl)cc4)n3)cc2)CC1c1ccc(N(C)C)cc1 (stereo not drawn) , KM12 colon, TGI recorded as 20.9 µM

The observed TGI for COC(=O)/C=C1/OC(c2ccc(C)cc2C)=CC1=O when tested with KM12 colon stands at 31.8 µM

Measured on KM12 colon, COC(=O)C1Cc2c([nH]c3ccccc23)-c2[nH]c3ccccc3c2CC(NC(C)=O)C(=O)NCC(=O)NCC(=O)N1 (stereo not drawn) has a documented TGI of > 100 µM

###

- System: DMS 114 small cell lung
- assay_name: NCI tumour cell line growth inhibition, 48 h
recorded_metric: TGI (µM)
// return numeric value only (unit: µM, not printed)

Study these solved cases before continuing.
compound	target_or_test_system	TGI / µM
O=[N+]([O-])c1ccc2nc3ccscc-3c2c1	DMS 114 small cell lung	39.6
O=C(Nc1ccccc1[N+](=O)[O-])C(=O)C(C(=O)c1ccccc1-c1ccccc1)C1OC(=O)c2ccccc21 (centres undefined)	DMS 114 small cell lung	31.7
O=[N+]([O-])c1cc(Cl)ccc1S(=O)(=O)c1ccc(Cl)cc1[N+](=O)[O-]	DMS 114 small cell lung	23.9

Now for another entry.
Item CC(=O)C(N=NC1CCC(S(=O)(=O)NB2N=CS2)CC1)C(=O)Nc1ccccc1C (centres undefined) was tested on DMS 114 small cell lung; the reported TGI is 26.3

###

- Test system: SR leukemia
- assay_name: NCI tumour cell line growth inhibition, 48 h
Let's look at some compounds and their measured GI50.

# example entries with known answers
>>> df
                                   compound        val
0  CC(=O)OC1CC2(O)C(CCC3(C)C(c4ccc(=O)oc4)CCC32O)C2(C)CCC(OC3OC(CO)C(O)C(O)C3O)C=C12 (stereo not given)   0.015 µM
1  Clc1ccc(-c2nc(C(Cl)Cl)nc3cc(-c4ccccc4)nn23)cc1   0.645 µM
2  COc1ccc(C2CC(c3cccc(OC)c3)=NN2C(=O)c2cc(OC)c(OC)c(OC)c2)cc1 (stereo not given)   0.359 µM
3  CCOc1ccc2c(c1)C(=O)c1c-2n(CCCN)c(=O)c2cc([N+](=O)[O-])ccc12  < 0.01 µM
4  Cc1nc2ccccc2c(/C=C/c2ccccc2)c1C(=O)/C=C/c1ccc(Cl)cc1    0.54 µM

C[CH2][Ge]([CH2]C)([CH2]C)[O]C(=O)C([O][Ge]([CH2]C)([CH2]C)[CH2]C)c1ccccc1 (stereo not given) on SR leukemia gives GI50 = 14.5 µM

Recorded GI50 for CC(C)c1ccc(/C=N/N=C(N)N)cc1 on SR leukemia was 3.31 µM

For COc1ccccc1Nc1nc2ccccc2c2occc12 on SR leukemia, measured GI50 was 9.33 µM

Bench note, SR leukemia: entry O=C1Nc2ccc(CN3CCOC3=O)cc2/C1=C/c1cc(CN2CCOCC2)c[nH]1 , its GI50 = 7.43 µM

Record O=C(NCCNC(=O)c1ccc(F)cc1)Nc1ccc(-n2cc(-c3ccncc3)c(-c3ccc(Cl)c(O)c3)n2)cc1 has SR leukemia GI50 equal to 0.299 µM

# value of GI50, SR leukemia, item O=C(O)c1cc2cc(O)ccc2[nH]1 = > 100 µM

SR leukemia GI50 of CCCC(CCC)Oc1ccc(CCCC2=C(O)c3ccccc3C(=O)C2=O)cc1 is 3.09 µM

Value sought: GI50, system SR leukemia, item Cc1ccc(N(/C=C/C(=O)C(F)(F)F)CC(=O)c2ccc(Cl)c(Cl)c2)cc1 . Result: 2.97 µM

So the reported GI50 for CCCC(=O)O[C@]1(C)CC[C@@H]2[C@H]3[C@@H]1[C@@H]1C/C(C)=C\CC[C@](C)(OC(=O)[C@@H]2C)[C@H]3O1 , on SR leukemia, turned out to be 13.2 µM

Param item: CCOC(=O)Nc1ccc(C(=O)/C=C/c2ccccc2)cc1 ; param system: SR leukemia; output GI50: 3.68 µM
